- ASSAY TARGET: H2 -receptor (Cavia porcellus)
- Construct: the heart removed and the right atria dissected free; from tissue; host or cells: guinea pig right atria
- Sequence (P47747 whole entry): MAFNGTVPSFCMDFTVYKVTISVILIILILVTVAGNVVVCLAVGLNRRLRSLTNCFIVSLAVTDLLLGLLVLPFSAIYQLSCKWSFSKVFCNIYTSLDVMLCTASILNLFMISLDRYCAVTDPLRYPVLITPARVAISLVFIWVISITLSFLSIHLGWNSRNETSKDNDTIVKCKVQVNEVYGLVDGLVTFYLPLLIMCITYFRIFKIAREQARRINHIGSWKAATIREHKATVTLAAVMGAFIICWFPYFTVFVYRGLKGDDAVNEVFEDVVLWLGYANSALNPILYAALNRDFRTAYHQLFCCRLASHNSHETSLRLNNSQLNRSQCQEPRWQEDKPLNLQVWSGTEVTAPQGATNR
- MEASUREMENT DESCRIPTION: Histamine-H2 antagonist activity in isolated guinea pig right atria
- Format: cell-based
- APPLIED CONDITIONS: histamine dose-response, read-out: pA2 (apparent dissociation constant of the H2-receptor antagonist) (converted)
compounds and their reported Kb

Would you please look over these solved cases?
smiles_input=NC(N)=Nc1nc(-c2c[nH]c(NCCCc3ccccc3)n2)cs1 property_name=Kb reported_value="≤ 100 nM"
smiles_input=NC(N)=Nc1nc(-c2c[nH]c(NCCc3ccc(Cl)cc3)n2)cs1 property_name=Kb reported_value="≤ 100 nM"
smiles_input=NC(N)=Nc1nc(-c2c[nH]c(NC3CCCC3)n2)cs1 property_name=Kb reported_value="≤ 1260 nM"

# input for lookup
Suppose we examine the compound `NC(N)=Nc1nc(-c2c[nH]c(NCCCCc3ccccc3)n2)cs1` ; what Kb value has been reported?
≤ 100 nM

---

- Test system: ethanol-induced ulceration in rats
- MEASUREMENT DESCRIPTION: Inhibition of ethanol-induced ulceration in rats
- Format: in vivo, rat
- APPLIED CONDITIONS: Rattus norvegicus, po, oral dose of 30 mg/kg
PROPERTY NAME: inhibition in vivo at 30 mg/kg

Would you please look over these solved cases?
smiles_input=NC(N)=Nc1nc(-c2c[nH]c(NC3CC3)n2)cs1 property_name="inhibition in vivo at 30 mg/kg" reported_value="7 to 13%"
smiles_input=NC(N)=Nc1nc(-c2c[nH]c(NCCCc3ccccc3)n2)cs1 property_name="inhibition in vivo at 30 mg/kg" reported_value="86 to 100%"
smiles_input=NC(N)=Nc1nc(-c2c[nH]c(N3CCCC3)n2)cs1 property_name="inhibition in vivo at 30 mg/kg" reported_value="≥ 19%"
smiles_input=CCN(CC)c1nc(-c2csc(N=C(N)N)n2)c[nH]1 property_name="inhibition in vivo at 30 mg/kg" reported_value="≥ 19%"
smiles_input=NC(N)=Nc1nc(-c2c[nH]c(NCCCCc3ccccc3)n2)cs1 property_name="inhibition in vivo at 30 mg/kg" reported_value="86 to 100%"
smiles_input=NC(N)=Nc1nc(-c2c[nH]c(NCCc3ccncc3)n2)cs1 property_name="inhibition in vivo at 30 mg/kg" reported_value="21 to 51%"

Suppose we examine the compound `NC(N)=Nc1nc(-c2c[nH]c(NCc3ccccc3)n2)cs1` ; what inhibition in vivo at 30 mg/kg value has been reported?
7 to 13%

Next entry: `NC(N)=Nc1nc(-c2c[nH]c(NC3CCCCC3)n2)cs1`
7 to 13%

---

- System: ethanol-induced ulceration in rats
- MEASUREMENT DESCRIPTION: Inhibition of ethanol-induced ulceration in rats
- Format: in vivo, rat
- APPLIED CONDITIONS: Rattus norvegicus, po, oral dose of 30 mg/kg
molecules and their reported inhibition in vivo at 30 mg/kg

Suppose we examine the molecule CC(C)CCNc1nc(-c2csc(N=C(N)N)n2)c[nH]1 [product m] ; what inhibition in vivo at 30 mg/kg value has been reported?
≥ 19%

Next entry: NC(N)=Nc1nc(-c2c[nH]c(N3CCCCC3)n2)cs1 [product cc]
≥ 19%

Next entry: CCN(C)c1nc(-c2csc(N=C(N)N)n2)c[nH]1 [product y]
≥ 19%
